Provenance of the data: patent US20100173888A1

# TARGET_OR_SYSTEM: human recombinant H-PGDS (Homo sapiens, UniProt O60760)
# Sequence (O60760 whole entry): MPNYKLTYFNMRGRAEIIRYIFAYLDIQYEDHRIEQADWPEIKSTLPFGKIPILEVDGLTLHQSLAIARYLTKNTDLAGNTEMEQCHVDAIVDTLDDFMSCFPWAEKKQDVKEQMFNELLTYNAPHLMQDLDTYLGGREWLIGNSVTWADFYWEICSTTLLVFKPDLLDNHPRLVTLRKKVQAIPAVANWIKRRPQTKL
# TEST_METHOD_NOTES: Fluorescence intensity h-PGDS TBA enzyme assay (PGH2 depletion, MDA/TBA fluorescence)
# Format: biochemical
# COND: 1:175,000 human recombinant H-PGDS, 42 second reaction, 3-fold serial dilutions, highest concentration typically 1 μM
pIC50: −log10 of the molar value.
MEASURED_ATTRIBUTE: pIC50

• NC(=O)[C@H]1CC[C@@H](NC(=O)c2ccc(-c3cccc(F)c3)nc2)C1 = 7.62

[P] CN1CCN(C(=O)[C@@H]2CC[C@H](NC(=O)c3ccc(-c4cccc(F)c4)nc3)C2)CC1=O
[Q] CC(C)(O)[C@H]1CC[C@@H](NC(=O)c2ccc(-c3cccc(F)c3)nc2)C1
input: // which entry reports the smaller pIC50, P or Q ? API: response body contains the label of the selected item.
output: Q
(Q: 7.45, P: 7.67)

---

# TARGET_OR_SYSTEM: human recombinant H-PGDS (Homo sapiens, UniProt O60760)
# TEST_METHOD_NOTES: Fluorescence intensity h-PGDS TBA enzyme assay (PGH2 depletion, MDA/TBA fluorescence)
# Assay type: biochemical
# COND: 1:175,000 human recombinant H-PGDS, 42 second reaction, 3-fold serial dilutions, highest concentration typically 1 μM
MEASURED_ATTRIBUTE: IC50 (nM)

Consider the reported IC50 for these compounds:
• CN(C)C(=O)N[C@H]1CC[C@H](NC(=O)c2ccc(-c3cccc(F)c3)nc2)CC1 = 18
• O=C(N[C@H]1CC[C@@H](C(=O)N2CC[C@@H](F)C2)C1)c1ccc(-c2cccc(F)c2)nc1 = 4.1
• O=C(N[C@@H]1CCC[C@H](CNC(=O)[C@@H]2CCCN2)C1)c1ccc(-c2cccc(F)c2)nc1 = 44.1

[A] C[C@H](O)C(=O)N[C@H]1CC[C@H](NC(=O)c2ccc(-c3cccc(F)c3)nc2)CC1
[B] NCC(=O)N[C@H]1CC[C@H](NC(=O)c2ccc(-c3cccc(F)c3)nc2)CC1
input: Select one. Lower IC50: A or B # reply format: chosen label
output: A
(A: 7.5 nM, B: 21 nM)
